Tested on: MEF A1-2A-BIM cells, caspase 3/7 luminescence, 3 h
experiment.notes: inducers of caspase signal in A1-dependent MEFs – cell-based, luminescence, retest, A1 inhibitor project, dose response (AID 2765)
Calls of active or inactive are those of the source.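 The calls were made as follows: active = half-maximal concentration for the rise in caspase light signal at or below ten times the top tested dose; inconclusive = flat fit between 30% and 70% activity, or unreliable curve fit; inactive = the rest.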
Outcome codes: label 1 = active, label 0 = inactive

| compound | class |
| --- | --- |
| Cc1n[nH]c(C)c1S(=O)(=O)N1CCC(C(=O)O)CC1 | label 0 |
| Nc1nc(F)nc2c1ncn2[C@@H]1O[C@H](CO)[C@@H](O)[C@H]1O | label 0 |
| C=CCNC(=O)CSc1nc2sc3c(c2c(=O)n1CCC)CCC3 | label 0 |
| CCOC(=O)/C(=C\c1ccc(OC)c(OC)c1)C(=O)c1cccnc1 | label 0 |
| CC(C)[C@H](NS(=O)(=O)c1ccccc1F)C(=O)OCC(=O)Nc1cccc(S(N)(=O)=O)c1 | label 0 |
| Cc1ccc(OCCC(=O)Nc2ccc(C)c(F)c2)cc1 | label 0 |
| COC(=O)C1=C(C(=O)OC)[C@@H]2N(C)c3ccc(OC)cc3[C@@]23C[C@@H](C(=O)OC)N(C(=O)c2ccco2)C3=N1 | label 0 |
| COc1ccccc1CCCNC(=O)C1CCC(=O)N(Cc2ccccc2F)C1 (stereo not drawn) | label 0 |
| COC(=O)C(C)Oc1cc(OC(C)C(=O)OC)c2c(-c3ccccc3)cc(=O)oc2c1 (stereo not drawn) | label 0 |
| O=C(NCCc1ccccc1)C(c1cccs1)N(C(=O)CCl)c1ccc(Cl)cc1 (stereo not drawn) | label 1 |
| CN(C)CCCN(C(=O)c1cc2cc([N+](=O)[O-])ccc2s1)c1nc2cc3c(cc2s1)OCCO3 | label 0 |
| COc1ccc(-c2nc(NC(=O)c3n[nH]c(=O)c4ccccc34)sc2C)cc1 | label 0 |
| COc1ccc(N2C(=O)CCC(C(=O)O)C2c2ccc(OC)c(OC)c2)cc1 (stereo not drawn) | label 0 |
| COc1ccc(NC(=O)/C=C/C(=O)O)c([N+](=O)[O-])c1 | label 0 |
| CCCNC(=O)C(Cc1ccccc1F)NC(=O)c1ccccn1 (stereo not drawn) | label 0 |
| COc1cc(SC#N)ccc1N=Cc1c(C)[nH]n(-c2ccc(C)cc2)c1=O | label 0 |
| O=C(c1cccc(F)c1F)N1CCCC1 | label 0 |
| Cc1ccc(NC(=O)COC(=O)CCc2c(C)nc3ncnn3c2C)cc1C | label 0 |
| Cc1cc(C)n(-c2ccc(NC(=O)C3CCN(Cc4ccc(C)o4)CC3)cc2)n1 | label 0 |
| Cc1cccc2c3c([nH]c12)CCN(C)C3 | label 0 |
| CN(C(=O)CSc1nnc(C(F)(F)F)n1N)C1CCS(=O)(=O)C1 (stereo not drawn) | label 0 |
| Cc1cccc(C)c1OCc1nnc(SCC(=O)Nc2nccs2)n1-c1ccccc1 | label 0 |
| Cc1ccc(-c2noc(CSc3nnc(CCc4ccccc4)n3-c3ccccc3)n2)cc1 | label 0 |
| O=C(Nc1ccccc1)N(Cc1ccc(Cl)cc1)CC(O)C(F)(F)F (stereo not drawn) | label 0 |
| NCC1CCC(C(=O)Oc2ccc(CCC(=O)O)cc2)CC1 (stereo not drawn) | label 0 |
| O=C(NCc1cccs1)C(=O)NCC1OCCCN1S(=O)(=O)c1ccccc1 (stereo not drawn) | label 0 |
| CC(=O)Nc1ncnc2c1c(-c1ccc(Cl)cc1)nn2C(C)(C)C | label 0 |
| Cc1ccccc1N=C1NC(=O)C(CO)(CO)S1 | label 0 |
| Cc1ccc(NC(=O)CCN2CC(C)OC(C)C2)cc1C (stereo not drawn) | label 0 |
| CCc1ccc(CN/C=C/C(=O)c2ccc(Br)cc2)cc1 | label 0 |
| Cc1cc(C)n2nc(SCC(=O)NC(=O)c3ccccc3)nc2n1 | label 0 |
| CCOC(=O)c1ccc(-c2ccc(/C=N/NC(=O)CN(c3cccc(C)c3)S(C)(=O)=O)o2)cc1 | label 1 |
| N#CC(C#N)=C1C=CC=CN1/C(=C\c1ccccc1Cl)C(=O)c1ccccc1 | label 1 |
| COc1ccc(NC(=O)C(NC(C)=O)C(=O)NCc2ccccc2Cl)cc1 (stereo not drawn) | label 0 |
| COc1ccc(CNS(=O)(=O)c2ccccc2Br)cc1 | label 0 |
| CCc1cccc(NC(=O)C2CCN(S(=O)(=O)c3ccc4c(c3)NC(=O)CO4)CC2)c1 | label 0 |
| COCCN(C(=O)CSc1nc2ccccc2c(=O)n1C(C)COC)c1c(N)n(Cc2ccccc2)c(=O)[nH]c1=O (stereo not drawn) | label 0 |
| Cc1ccc(-c2nc(NC(=O)c3nn(C)cc3[N+](=O)[O-])sc2C)cc1 | label 1 |
| CCN1C(=O)/C(=C2\Sc3ccccc3N2CC)OC1=S | label 0 |
| CCCCc1ccc(-c2csc(/C(C#N)=C\c3ccc(C)o3)n2)cc1 | label 0 |
| CC(C)(C)C1CCc2onc(C(=O)Nc3cccc(O)c3)c2C1 (stereo not drawn) | label 0 |
| COc1ccc(CCNC(=O)CSc2nc(-c3ccc(OC)c(OC)c3)ccc2C#N)cc1 | label 0 |
| Cc1ccc(SCCNC(=S)Nc2cc(C)ccc2C)cc1 | label 0 |
